# Tested System: T1, recombinant human TfR1 (transferrin receptor protein 1) (human, UniProt P02786 89-760)
# T1 construct: Recombinant protein in SPR and ELISA; they were assigned to this molecule; also called hTfR1; huTfR1
# T1 sequence (P02786 89-760 limits assumed): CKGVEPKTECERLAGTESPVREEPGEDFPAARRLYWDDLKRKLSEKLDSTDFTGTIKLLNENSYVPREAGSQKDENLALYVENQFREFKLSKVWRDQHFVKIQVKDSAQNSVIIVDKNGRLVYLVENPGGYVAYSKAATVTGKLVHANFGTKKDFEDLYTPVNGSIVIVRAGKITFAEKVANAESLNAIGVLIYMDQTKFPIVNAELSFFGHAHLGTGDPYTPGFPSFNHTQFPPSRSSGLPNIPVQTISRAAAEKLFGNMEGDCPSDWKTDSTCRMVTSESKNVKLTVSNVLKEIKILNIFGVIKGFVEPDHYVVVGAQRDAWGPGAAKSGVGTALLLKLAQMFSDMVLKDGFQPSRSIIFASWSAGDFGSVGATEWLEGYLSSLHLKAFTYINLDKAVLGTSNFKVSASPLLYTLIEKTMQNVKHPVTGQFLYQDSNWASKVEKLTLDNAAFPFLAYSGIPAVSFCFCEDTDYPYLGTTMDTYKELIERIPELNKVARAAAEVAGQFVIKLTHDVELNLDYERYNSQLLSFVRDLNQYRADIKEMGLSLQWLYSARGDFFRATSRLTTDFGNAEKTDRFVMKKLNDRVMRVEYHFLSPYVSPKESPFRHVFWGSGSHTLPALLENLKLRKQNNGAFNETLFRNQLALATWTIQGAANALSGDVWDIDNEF
# Experiment Description: Table 14, Fab-ASO300 conjugate; method not named
Endpoint Label: DMPK oligo conjugate binding (nM)
Your answer is read as nM, so omit the unit and give the number.

[
  {
    "Binder": "conjugate of humanized anti-TfR Fab 3A4 VH3/Vκ4 with DMPK-targeting oligonucleotide ASO300 (Fab, V domains shown, oligonucleotide ASO300 conjugated to the Fab via linker; residue and chain not stated, also called 3A4 (VH3/Vk4) conjugate) VH: EVQLVQSGSELKKPGASVKVSCTASGFNIKDDYMYWVRQPPGKGLEWIGWIDPENGDTEYASKFQDRVTVTADTSTNTAYMELSSLRSEDTAVYYCTLWLRRGLDYWGQGTLVTVSS VL: DIVMTQSPLSLPVTPGEPASISCRSSKSLLHSNGYTYLFWFQQRPGQSPRLLIYRMSNLASGVPDRFSGSGSGTDFTLKISRVEAEDVGVYYCMQHLEYPFTFGGGTKVEIKR",
    "Observed Value": 2.84
  },
  {
    "Binder": "conjugate of humanized anti-TfR Fab 3M12 VH4/Vκ3 with DMPK-targeting oligonucleotide ASO300 (Fab, V domains shown, oligonucleotide ASO300 conjugated to the Fab via linker; residue and chain not stated, also called 3M12 (VH4/Vk3) conjugate) VH: QVQLQESGPGLVKPSQTLSLTCTVTGYSITSGYYWNWIRQPPGKGLEWIGYITFDGANNYNPSLKNRVSISRDTSKNQFSLKLSSVTAEDTATYYCTRSSYDYDVLDYWGQGTTVTVSS VL: DIQMTQSPSSLSASVGDRVTITCRASQDISNFLNWYQQKPGQPVKLLIYYTSRLHSGVPSRFSGSGSGTDFTLTISSLQPEDFATYYCQQGHTLPYTFGQGTKLEIKR",
    "Observed Value": 1.18
  },
  {
    "Binder": "conjugate of humanized anti-TfR Fab 3M12 VH3/Vκ2 with DMPK-targeting oligonucleotide ASO300 (Fab, V domains shown, oligonucleotide ASO300 conjugated to the Fab via linker; residue and chain not stated, also called 3M12 (VH3/Vk2) conjugate) VH: QVQLQESGPGLVKPSQTLSLTCSVTGYSITSGYYWNWIRQPPGKGLEWMGYITFDGANNYNPSLKNRVSISRDTSKNQFSLKLSSVTAEDTATYYCTRSSYDYDVLDYWGQGTTVTVSS VL: DIQMTQSPSSLSASVGDRVTITCRASQDISNFLNWYQQKPGQPVKLLIYYTSRLHSGVPSRFSGSGSGTDFTLTISSLQPEDFATYFCQQGHTLPYTFGQGTKLEIKR",
    "Observed Value": 1.14
  },
  {
    "Binder": "conjugate of humanized anti-TfR Fab 3A4 VH3 (N54T)/Vκ4 with DMPK-targeting oligonucleotide ASO300 (Fab, V domains shown, oligonucleotide ASO300 conjugated to the Fab via linker; residue and chain not stated, also called 3A4 (VH3-N54T/Vk4) conjugate) VH: EVQLVQSGSELKKPGASVKVSCTASGFNIKDDYMYWVRQPPGKGLEWIGWIDPETGDTEYASKFQDRVTVTADTSTNTAYMELSSLRSEDTAVYYCTLWLRRGLDYWGQGTLVTVSS VL: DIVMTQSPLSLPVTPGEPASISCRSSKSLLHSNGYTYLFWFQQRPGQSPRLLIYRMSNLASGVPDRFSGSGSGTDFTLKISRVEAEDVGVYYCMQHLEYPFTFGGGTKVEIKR",
    "Observed Value": 2.22
  },
  {
    "Binder": "conjugate of humanized anti-TfR Fab 5H12 VH5 (C33D)/Vκ4 with DMPK-targeting oligonucleotide ASO300 (Fab, V domains shown, oligonucleotide ASO300 conjugated to the Fab via linker; residue and chain not stated, also called 5H12 (VH5-C33D/Vk4) conjugate) VH: QVQLVQSGAEVKKPGASVKVSCKASGYSFTDYDINWVRQAPGQGLEWMGWIYPGSGNTRYSERFKGRVTITRDTSASTAYMELSSLRSEDTAVYYCAREDYYPYHGMDYWGQGTLVTVSS VL: DIVMTQSPDSLAVSLGERATINCRASESVDGYDNSFMHWYQQKPGQPPKLLIFRASNLESGVPDRFSGSGSGTDFTLTISSLQAEDVAVYYCQQSSEDPWTFGQGTKLEIKR",
    "Observed Value": 110
  },
  {
    "Binder": "conjugate of humanized anti-TfR Fab 5H12 VH5 (C33Y)/Vκ4 with DMPK-targeting oligonucleotide ASO300 (Fab, V domains shown, oligonucleotide ASO300 conjugated to the Fab via linker; residue and chain not stated) VH: QVQLVQSGAEVKKPGASVKVSCKASGYSFTDYYINWVRQAPGQGLEWMGWIYPGSGNTRYSERFKGRVTITRDTSASTAYMELSSLRSEDTAVYYCAREDYYPYHGMDYWGQGTLVTVSS VL: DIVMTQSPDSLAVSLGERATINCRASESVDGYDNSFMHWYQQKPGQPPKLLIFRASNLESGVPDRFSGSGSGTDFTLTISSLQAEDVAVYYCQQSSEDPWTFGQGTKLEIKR",
    "Observed Value": 13.9
  }
]

Kindly consider the entry below.
Query: DMPK oligo conjugate binding; subject: conjugate of humanized anti-TfR Fab 3A4 VH3 (N54S)/Vκ4 with DMPK-targeting oligonucleotide ASO300 (Fab, V domains shown, oligonucleotide ASO300 conjugated to the Fab via linker; residue and chain not stated, also called 3A4 (VH3-N54S/Vk4) conjugate) VH: EVQLVQSGSELKKPGASVKVSCTASGFNIKDDYMYWVRQPPGKGLEWIGWIDPESGDTEYASKFQDRVTVTADTSTNTAYMELSSLRSEDTAVYYCTLWLRRGLDYWGQGTLVTVSS VL: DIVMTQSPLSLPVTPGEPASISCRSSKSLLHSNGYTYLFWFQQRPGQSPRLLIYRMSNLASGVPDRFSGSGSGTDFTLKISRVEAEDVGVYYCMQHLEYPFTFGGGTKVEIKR
2.71
